# System: MCF7
# ASSAY DETAILS: Estrogenic activity in human MCF7 cells
# Type: functional, cell-based
Active and inactive are the calls of the source. The calls are words filed in the database; no cut-off is given here.
MEASUREMENT LABEL: Activity

- STRUCTURE: "CCCCCCN(c1ccc(O)cc1)c1ccc(OCCN2CCCCC2)cc1"
  Activity: "inactive"
- STRUCTURE: "CCCCCCN(c1ccc(O)cc1)c1ccc(OCCN2CCCC2)cc1"
  Activity: "inactive"
- STRUCTURE: "CN(C)CCOc1ccc(N(Cc2ccccc2)c2ccc(O)cc2)cc1"
  Activity: "inactive"
- STRUCTURE: "Oc1ccc(N(Cc2ccccc2)c2ccc(OCCN3CCCC3)cc2)cc1"
  Activity: "inactive"
- STRUCTURE: "CCN(CC)CCOc1ccc(N(Cc2ccccc2)c2ccc(O)cc2)cc1"
  Activity: "inactive"
- STRUCTURE: "CCCCCCN(c1ccc(O)cc1)c1ccc(OCCN(CC)CC)cc1"
  Activity: "inactive"

Provide the documented Activity with MCF7 as the system for `CCCCCCN(c1ccc(O)cc1)c1ccc(OCCN2CCCCCC2)cc1`
inactive

Provide the documented Activity with MCF7 as the system for `Oc1ccc(N(Cc2ccccc2)c2ccc(OCCN3CCCCCC3)cc2)cc1`
inactive

Provide the documented Activity with MCF7 as the system for `O=S(=O)(c1ccccc1)N(c1ccc(O)cc1)c1ccc(OCCN2CCCC2)cc1`
inactive

Provide the documented Activity with MCF7 as the system for `CN(C)CCCOc1ccc(N(c2ccc(O)cc2)S(=O)(=O)c2ccccc2)cc1`
inactive

Provide the documented Activity with MCF7 as the system for `CN(C)CCOc1ccc(N(c2ccc(O)cc2)S(=O)(=O)c2ccccc2)cc1`
inactive
